tested on: HT29 colon; experiment: NCI tumour cell line growth inhibition, 48 h; in the data active = GI50 below about 0.43 µM; inactive = the rest
Hi there, use one of these labels in your reply, thanks! active, inactive

Field: outcome | Entry: `COc1ccc(CCc2nc3cc(-c4c(C)noc4C)ccc3n2CCN2CCOCC2)cc1`
inactive

Then what about the compound `CC(=O)/C(=C\c1c(-c2ccccc2)[nH]c2ccccc12)S(C)(=O)=O` ?
inactive

And `COc1ccc(/C=C(/C(=O)N2CCCCC2)c2cc(OC)c(OC)c(OC)c2)cc1` ?
active

What do we get for `CCNC(=O)N1CCc2c(Cl)c3c(c(OC)c2[C@@H]1[C@H]1OCc2c1ccc(OC)c2OC)OCCO3` ?
inactive

And the next one, COc1ccc2c(c1OC)C(=O)OC2C1c2c(c(N)c3c(c2OC)OCO3)CCN1C (stereo not given) ?
inactive

Can you check `CCOC(=O)c1cc(C(=O)c2cc(OC)c(OC)c(OC)c2)n2nc(C)ccc12` next?
active

Item: `Nc1c(C(=O)N/N=C/c2ccco2)cnn1-c1ccnc2c(C(F)(F)F)cccc12`
inactive

Quick one: `CCCCCCCCCCCCCCCC(=O)Nc1ccn([C@@H]2O[C@H](CO)[C@@H](O)[C@@H]2C#N)c(=O)n1`
inactive

Next: `Cn1cc(-c2csc(-c3c[nH]c4ccccc34)n2)c2cccnc21`
active

One more compound: `O=C1c2ccccc2S(=O)(=O)N1CSC(=S)N1CCOCC1`
inactive

Further, for `O=C(Nc1ccccc1C(=O)N/N=C(\c1ccccc1)c1ccccn1)c1ccccc1` ?
inactive

Same read-out for `CC(C)(C(=O)NCC(F)(F)C(F)(F)F)C(=O)N[C@@H]1C(=O)Nc2ccccc2-c2ccccc21` ?
inactive

Similarly, `CCCCCCCC/C(=C\C1=C(C)C(=O)C(OC)=C(OC)C1=O)C(=O)O` ?
inactive

# repeat for `O=c1cc(/C=C/c2ccc(O)c(O)c2)cc(/C=C/c2ccc(O)c(O)c2)o1`
inactive

Now the same for COc1cc2c(cc1OCCCCCN1CCN(CCCCCOc3cc4c(cc3OC)C(=O)C3CCC[C@H]3C=N4)CC1)N=C[C@@H]1CCCC1C2=O (stereo not given in full)
inactive
